target: γ-secretase (Homo sapiens); experiment: Screening for γ-secretase-modulating activity in SKNBE2 cells carrying APP 695 wild type (assay of Citron et al 1997); format: cell-based; details: SKNBE2, @ 1 uM; SKNBE2 cells carrying the APP 695 wild type
Assign 1 whenever inhibition at 1 µM does not fall below 40%; assign -1 whenever it does.

Q. For this compound, is measured inhibition at 1 µM 40% or higher? Cc1ccccc1CC1CCCCN1c1cc(-c2ccc(C(F)(F)F)cc2)cc(C(CC(C)C)C(=O)O)c1 (stereo not shown) [Example 83]
A. 1

Q. For this compound, is measured inhibition at 1 µM 40% or higher? CC(C)CC(C(=O)O)c1cc(-c2ccc(C(F)(F)F)cc2)cc(C2CCCN(Cc3ccc4ccccc4c3)C2)c1 (stereo not shown) [Example 46]
A. 1

Q. For this compound, is measured inhibition at 1 µM 40% or higher? CC(C)CC(C(=O)O)c1cc(-c2ccc(C(F)(F)F)cc2)cc(C2CCCN(Cc3ccccc3)C2)c1 (stereo not shown) [Example 67]
A. 1

Q. For this compound, is measured inhibition at 1 µM 40% or higher? CC(C)CC(C(=O)O)c1cc(-c2ccc(C(F)(F)F)cc2)cc(C2CCN(Cc3ccc(C(F)(F)F)cc3)CC2)c1 (stereo not shown) [Example 78]
A. -1

Q. For this compound, is measured inhibition at 1 µM 40% or higher? CC(C)CCC(c1ccc(C(F)(F)F)cc1)N1CCCC(c2cc(-c3ccc(C(F)(F)F)cc3)cc(C(CC(C)C)C(=O)O)c2)C1 (single isomer, unassigned) [Example 56]
A. 1

Q. For this compound, is measured inhibition at 1 µM 40% or higher? CC(C)CC(C(=O)O)c1cc(-c2ccc(C(F)(F)F)cc2)cc(N2CCCCC2C)c1 (stereo not shown) [Example 3]
A. -1

Q. For this compound, is measured inhibition at 1 µM 40% or higher? CC(C)CC(C(=O)O)c1cc(-c2ccc(C(F)(F)F)cc2)cc(N2CCC(F)(F)CC2)c1 (stereo not shown) [Example 5]
A. -1

Every entry's value here was drawn from patent US8252935B2.
